B1: C1orf137 (parent)
chain: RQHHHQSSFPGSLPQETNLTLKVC

# Variants of: B1
# assay-explanation: protein stability index of a GFP-peptide fusion (GPS, HEK-293T) (PSI 1-6); higher = more stable;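 further: lentivirally expressed fusions sorted by FACS into six bins by GFP to DsRed ratio, PSI derived from sequencing read proportions per bin multiplied by bin number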
# measurement-setup: c terminus: a fixed tail appended
Record t whenever protein stability index is at 3 or higher; record f when lower.

mutation-code: R1N
class-name: f
//
mutation-code: Q6W
class-name: f
//
mutation-code: F9D
class-name: t

Exercise: Quick check: does `F9W` have protein stability index greater than or equal to 3?
Solution: t

Exercise: Reported protein stability index reaches at least 3 for `H5T` ?
Solution: t

Exercise: Check the entry `N18A` : does protein stability index equal or exceed 3?
Solution: f
